molecular target: COX-2 (Homo sapiens, UniProt P35354); test: COX-2 inhibition, oxygen utilization assay; assay type: biochemical; conditions: oxygen consumption; read-out: IC50 Conc. to Inhibit 50% of COX-2 Activity
Sequence (P35354 18-604): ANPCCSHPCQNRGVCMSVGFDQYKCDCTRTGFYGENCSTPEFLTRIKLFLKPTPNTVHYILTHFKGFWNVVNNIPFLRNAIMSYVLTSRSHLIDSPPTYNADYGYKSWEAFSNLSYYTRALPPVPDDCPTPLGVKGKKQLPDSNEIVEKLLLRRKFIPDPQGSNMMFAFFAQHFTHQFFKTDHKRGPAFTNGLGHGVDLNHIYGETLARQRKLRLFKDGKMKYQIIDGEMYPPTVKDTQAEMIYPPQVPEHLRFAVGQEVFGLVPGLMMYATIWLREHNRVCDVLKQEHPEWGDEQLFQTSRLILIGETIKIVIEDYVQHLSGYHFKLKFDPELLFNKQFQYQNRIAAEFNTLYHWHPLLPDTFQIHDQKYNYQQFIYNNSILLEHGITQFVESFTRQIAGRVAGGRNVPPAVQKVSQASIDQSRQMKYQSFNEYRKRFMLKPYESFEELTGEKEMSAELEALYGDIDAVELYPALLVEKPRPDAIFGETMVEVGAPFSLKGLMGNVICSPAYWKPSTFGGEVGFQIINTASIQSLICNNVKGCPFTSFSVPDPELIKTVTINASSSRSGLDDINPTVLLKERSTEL
Reported endpoint: IC50 (µM)
One number for each entry, in µM.

Quick one: IC50 of `CC(C)(C)c1ccc(Cc2ccc(O)c(C(C)(C)C)c2)cc1` ?
100

---

system: PGE2 production in Human Embryo Palatal Mesenchyme cells (HEPM, ATCC #1486); assay: Inhibition of PGE2 production in IL-1β-stimulated HEPM cells; assay type: cell-based; details: Homo sapiens; HEPM cells, 1.0 ng/mL IL-1β, 24 hours, normalized to viable cells (MTT); read-out: IC50 Concentration to Inhibit 50% of PGE2
Reported endpoint: pIC50
Numbers only, as −log10 of the molar value.

Quick one: pIC50 of CC(C)(C)c1ccc(Cc2ccc(O)c(C(C)(C)C)c2)cc1 [2-t-butyl-4-(4-t-butylbenzyl)-phenol] ?
5.43
